Reported values of Inhibition (inhibitory activity of compounds against HIV-1 protease) for individual entries
Target: HIV-1 protease (Human immunodeficiency virus type 1 group M subtype B)
Construct: Recombinant HIV-1 protease was prepared from the expression vector, PGEX-PR 107; made in house
Test: HPLC assay of proteolytic activity of recombinant HIV-1 protease (SQNYPIV substrate)
Assay type: biochemical
Conditions: 17.9 μg/ml; HPLC assay
Description: Recombinant HIV-1 protease was prepared from the expression vector, PGEX-PR 107, in E. coli DII5a and was purified according to the method established in Dr. Wan's laboratory. The proteolytic activity of HIV-1 PR was measured by Dr. Wan's group at the Biochemistry Department using the synthetic heptapeptide Ser-Gln-Asn-Tyr-Pro-Ile-Val (SQNYPIV), corresponding to the p24-p17 cleavage site in the natural gag precursor, as substrate. […]
Reply numerically in %, unit not repeated.

Below, 3 molecules whose answers are already recorded.
C[C@@H]1CC[C@]2(C(=O)O)CC[C@]3(C)C(=CC[C@@H]4[C@@]5(C)CC[C@@H](O)C(C)(C)[C@@H]5CC[C@]43C)[C@@H]2[C@]1(C)O [Compound 3, 3α,19α-Dihydroxy-12-ursen-28-oic acid] = 42.18
C[C@@H]1CC[C@]2(C(=O)O)CC[C@]3(C)C(=CC[C@@H]4[C@@]5(C)C[C@@H](O)C(=O)C(C)(C)[C@@H]5CC[C@]43C)[C@@H]2[C@]1(C)O = 72.19
C[C@H]1[C@H](C)CC[C@]2(C(=O)O)CC[C@]3(C)C(=CC[C@@H]4[C@@]5(C)CC[C@H](O)C(C)(C)[C@@H]5CC[C@]43C)[C@H]12 [Compound 2, 3β-Hydroxy-12-ursen-28-oic acid] = 85.07

I would be grateful if you could share the reported Inhibition (inhibitory activity of compounds against HIV-1 protease) for C[C@@H]1CC[C@]2(C(=O)O)CC[C@]3(C)C(=CC[C@@H]4[C@@]5(C)C[C@@H](O)[C@H](O)C(C)(C)[C@@H]5CC[C@]43C)[C@@H]2[C@]1(C)O .
49.47

----------
# inhibition at 17.9 µg/mL values compiled below
Target: HIV-1 protease (Human immunodeficiency virus type 1 group M subtype B, UniProt P04585)
Construct: Recombinant HIV-1 protease was prepared from the expression vector, PGEX-PR 107; made in house
Assay: HPLC assay of proteolytic activity of recombinant HIV-1 protease (SQNYPIV substrate)
Assay type: biochemical
Details: 17.9 μg/ml; HPLC assay; read-out: Inhibition (inhibitory activity of compounds against HIV-1 protease)
Note: state the figure and append the unit.

Please review the following examples before continuing.
C[C@@H]1CC[C@]2(C(=O)O)CC[C@]3(C)C(=CC[C@@H]4[C@@]5(C)C[C@@H](O)C(=O)C(C)(C)[C@@H]5CC[C@]43C)[C@@H]2[C@]1(C)O [Compound 1] = 72%
C[C@H]1[C@H](C)CC[C@]2(C(=O)O)CC[C@]3(C)C(=CC[C@@H]4[C@@]5(C)CC[C@H](O)C(C)(C)[C@@H]5CC[C@]43C)[C@H]12 [Compound 2, 3β-Hydroxy-12-ursen-28-oic acid] = 85%
C[C@@H]1CC[C@]2(C(=O)O)CC[C@]3(C)C(=CC[C@@H]4[C@@]5(C)C[C@@H](O)[C@H](O)C(C)(C)[C@@H]5CC[C@]43C)[C@@H]2[C@]1(C)O [Compound 6] = 49%
C[C@@H]1CC[C@]2(C(=O)O)CC[C@]3(C)C(=CC[C@@H]4[C@@]5(C)CC[C@@H](O)C(C)(C)[C@@H]5CC[C@]43C)[C@@H]2[C@]1(C)O [Compound 3, 3α,19α-Dihydroxy-12-ursen-28-oic acid] = 42%

Now let's try a different one.
Quick one: inhibition at 17.9 µg/mL for CC1(C)CC[C@]2(C(=O)O)CC[C@]3(C)C(=CC[C@@H]4[C@@]5(C)C[C@@H](O)[C@H](O)C(C)(C)[C@@H]5CC[C@]43C)[C@@H]2C1 [Compound 4, 2α,3β-Dihydroxy-12-oleanen-28-oic acid] ?
100%
